IC50 for assorted compounds
measurementTarget: rat lens aldose reductase (RLAR) (Rattus norvegicus, UniProt P07943)
Construct: from tissue; host or cells: lens of Sprague-Dawley rats (supernatant of homogenate)
assayOverview: RLAR inhibitory activity assay (rat lens homogenate, DL-glyceraldehyde substrate)
Format: biochemical
appliedConditions: rat lens homogenate; substrate DL-glyceraldehyde; mean ± S.E.M. of triplicate experiments; read-out: RLAR IC50

compound	measurementTarget	IC50, µM
CC(C)=CCC[C@](C)(O)C1CC[C@]2(C)[C@@H]1[C@H](O)CC1[C@@]3(C)CC[C@H](O)C(C)(C)C3CC[C@]12C (some centres unmarked)	rat lens aldose reductase (RLAR) (Rattus norvegicus, UniProt P07943)	21.4
CC(C)=CCC[C@](C)(O[C@@H]1O[C@H](CO[C@@H]2OC[C@@H](O)[C@H](O)[C@H]2O)[C@@H](O)[C@H](O)[C@H]1O)[C@H]1CC[C@]2(C)[C@@H]1[C@H](O)C[C@@H]1[C@@]3(C)CC[C@H](O[C@@H]4O[C@H](CO)[C@@H](O)[C@H](O)[C@H]4O[C@@H]4O[C@H](CO)[C@@H](O)[C@H](O)[C@H]4O)C(C)(C)[C@@H]3CC[C@]12C [Ginsenoside Rb3]	rat lens aldose reductase (RLAR) (Rattus norvegicus, UniProt P07943)	117
CC(C)=CCC[C@](C)(O[C@@H]1O[C@H](CO)[C@@H](O)[C@H](O)[C@H]1O)C1CC[C@]2(C)[C@@H]1[C@H](O)CC1[C@@]3(C)CC[C@H](O)C(C)(C)C3CC[C@]12C (some centres unmarked)	rat lens aldose reductase (RLAR) (Rattus norvegicus, UniProt P07943)	41.5
CC(C)=CCC[C@](C)(O)[C@H]1CC[C@]2(C)[C@@H]1[C@H](O)C[C@@H]1[C@@]3(C)CC[C@H](O)C(C)(C)[C@@H]3[C@@H](O[C@@H]3O[C@H](CO)[C@@H](O)[C@H](O)[C@H]3O[C@@H]3O[C@H](CO)[C@@H](O)[C@H](O)[C@H]3O)C[C@]12C [Ginsenoside Rf]	rat lens aldose reductase (RLAR) (Rattus norvegicus, UniProt P07943)	11.3
CC(=O)OC[C@H]1O[C@@H](O[C@H]2[C@H](O[C@H]3CC[C@@]4(C)C(CC[C@]5(C)C4C[C@@H](O)[C@@H]4C([C@](C)(CCC=C(C)C)O[C@@H]6O[C@H](CO[C@@H]7O[C@@H](CO)[C@H](O)[C@H]7O)[C@@H](O)[C@H](O)[C@H]6O)CC[C@]45C)C3(C)C)O[C@H](CO)[C@@H](O)[C@@H]2O)[C@H](O)[C@@H](O)[C@@H]1O (some centres unmarked) [Ginsenoside Rs2]	rat lens aldose reductase (RLAR) (Rattus norvegicus, UniProt P07943)	149

----------
measurementTarget: human recombinant aldose reductase (HRAR) (Homo sapiens, UniProt P15121)
Construct: purchased Wako Chemicals (Osaka, Japan)
assayOverview: Enzyme kinetics of HRAR inhibition (Lineweaver-Burk and Dixon plots)
Assay type: biochemical
appliedConditions: Dixon plots; single inhibition constant; read-out: HRAR Ki
pKi: −log10 of the molar value.

compound	pKi
CC(C)=CCC[C@](C)(O[C@@H]1O[C@H](CO)[C@@H](O)[C@H](O)[C@H]1O)C1CC[C@]2(C)[C@@H]1[C@H](O)CC1[C@@]3(C)CC[C@H](O)C(C)(C)C3CC[C@]12C (stereo partly shown) [Compound K]	5.80
CC(C)=CCC[C@](C)(O)C1CC[C@]2(C)[C@@H]1[C@H](O)CC1[C@@]3(C)CC[C@H](O)C(C)(C)C3CC[C@]12C (stereo partly shown) [Protopanaxadiol]	6.14
CC(C)=CCCC(C)(O)C1CCC2(C)C1C(O)CC1C3(C)CCC(O)C(C)(C)C3C(OC3OC(CO)C(O)C(O)C3OC3OC(C)C(O)C(O)C3O)CC12C [(20R) ginsenoside Rg2]	4.93
CC(C)=CCC[C@](C)(O)[C@H]1CC[C@]2(C)[C@@H]1[C@H](O)C[C@@H]1[C@@]3(C)CC[C@H](O)C(C)(C)[C@@H]3[C@@H](O)C[C@]12C [Protopanaxatriol]	5.58

----------
measurementTarget: human recombinant aldose reductase (HRAR) (Homo sapiens)
Construct: purchased Wako Chemicals (Osaka, Japan)
assayOverview: HRAR inhibition assay (DL-glyceraldehyde substrate)
Type: biochemical
appliedConditions: substrate DL-glyceraldehyde; mean ± S.E.M. of triplicate experiments; read-out: HRAR IC50
pIC50: −log10 of the molar value.
The following molecules are shown together with reported pIC50 values.
measurementKind: pIC50

molecule	measurementTarget	measurementKind	ltGtEq	result
CC(C)=CCC[C@](C)(O[C@@H]1O[C@H](CO[C@@H]2O[C@@H](CO)[C@H](O)[C@H]2O)[C@@H](O)[C@H](O)[C@H]1O)[C@H]1CC[C@]2(C)[C@@H]1[C@H](O)C[C@@H]1[C@@]3(C)CC[C@H](O[C@@H]4O[C@H](CO)[C@@H](O)[C@H](O)[C@H]4O[C@@H]4O[C@H](CO)[C@@H](O)[C@H](O)[C@H]4O)C(C)(C)[C@@H]3CC[C@]12C [Ginsenoside Rc]	human recombinant aldose reductase (HRAR) (Homo sapiens)	pIC50	=	4.25
CC(C)=CCC[C@](C)(O)[C@H]1CC[C@]2(C)[C@@H]1[C@H](O)C[C@@H]1[C@@]3(C)CC[C@H](O)C(C)(C)[C@@H]3[C@@H](O[C@@H]3O[C@H](CO)[C@@H](O)[C@H](O)[C@H]3O[C@@H]3O[C@H](CO)[C@@H](O)[C@H](O)[C@H]3O)C[C@]12C [Ginsenoside Rf]	human recombinant aldose reductase (HRAR) (Homo sapiens)	pIC50	=	4.71
CC(C)=CCC[C@](C)(O[C@@H]1O[C@H](CO[C@@H]2O[C@@H](CO)[C@H](O)[C@H]2O[C@@H]2OC[C@@H](O)[C@H](O)[C@H]2O)[C@@H](O)[C@H](O)[C@H]1O)[C@H]1CC[C@]2(C)[C@@H]1[C@H](O)C[C@@H]1[C@@]3(C)CC[C@H](O[C@@H]4O[C@H](CO)[C@@H](O)[C@H](O)[C@H]4O[C@@H]4O[C@H](CO)[C@@H](O)[C@H](O)[C@H]4O)C(C)(C)[C@@H]3CC[C@]12C [Ginsenoside Ra2]	human recombinant aldose reductase (HRAR) (Homo sapiens)	pIC50	=	4.08
CC(C)=CCC[C@](C)(O[C@@H]1O[C@H](CO)[C@@H](O)[C@H](O)[C@H]1O)[C@H]1CC[C@]2(C)[C@@H]1[C@H](O)C[C@@H]1[C@@]3(C)CC[C@H](O)C(C)(C)[C@@H]3[C@@H](O[C@@H]3O[C@H](CO)[C@@H](O)[C@H](O)[C@H]3O[C@@H]3O[C@@H](C)[C@H](O)[C@@H](O)[C@H]3O)C[C@]12C [Ginsenoside Re]	human recombinant aldose reductase (HRAR) (Homo sapiens)	pIC50	=	4.36
CC(C)=CCC[C@](C)(O[C@@H]1O[C@H](CO[C@@H]2O[C@H](CO)[C@@H](O)[C@H](O)[C@H]2O)[C@@H](O)[C@H](O)[C@H]1O)[C@H]1CC[C@]2(C)[C@@H]1[C@H](O)C[C@@H]1[C@@]3(C)CC[C@H](O[C@@H]4O[C@H](CO)[C@@H](O)[C@H](O)[C@H]4O[C@@H]4O[C@H](CO)[C@@H](O)[C@H](O)[C@H]4O)C(C)(C)[C@@H]3CC[C@]12C [Ginsenoside Rb1]	human recombinant aldose reductase (HRAR) (Homo sapiens)	pIC50	=	4.03
CC(C)=CCC[C@](C)(O[C@@H]1O[C@H](CO)[C@@H](O)[C@H](O)[C@H]1O)[C@H]1CC[C@]2(C)[C@@H]1[C@H](O)C[C@@H]1[C@@]3(C)CC[C@H](O)C(C)(C)[C@@H]3[C@@H](O[C@@H]3O[C@H](CO)[C@@H](O)[C@H](O)[C@H]3O)C[C@]12C [Ginsenoside Rg1]	human recombinant aldose reductase (HRAR) (Homo sapiens)	pIC50	=	4.56
CC(C)=CCCC(C)(O)C1CCC2(C)C1C(O)CC1C3(C)CCC(O)C(C)(C)C3C(OC3OC(CO)C(O)C(O)C3OC3OC(C)C(O)C(O)C3O)CC12C [(20R) ginsenoside Rg2]	human recombinant aldose reductase (HRAR) (Homo sapiens)	pIC50	=	4.86
CC(C)=CCCC(C)(O)C1CCC2(C)C1C(O)CC1C3(C)CCC(O)C(C)(C)C3C(OC3OC(CO)C(O)C(O)C3OC3OC(C)C(O)C(O)C3O)CC12C [(20S) ginsenoside Rg2]	human recombinant aldose reductase (HRAR) (Homo sapiens)	pIC50	=	4.80
CC(=O)OC[C@H]1O[C@@H](O[C@H]2[C@H](O[C@H]3CC[C@@]4(C)C(CC[C@]5(C)C4C[C@@H](O)[C@@H]4C([C@](C)(CCC=C(C)C)O[C@@H]6O[C@H](CO[C@@H]7O[C@@H](CO)[C@H](O)[C@H]7O)[C@@H](O)[C@H](O)[C@H]6O)CC[C@]45C)C3(C)C)O[C@H](CO)[C@@H](O)[C@@H]2O)[C@H](O)[C@@H](O)[C@@H]1O (some centres unmarked) [Ginsenoside Rs2]	human recombinant aldose reductase (HRAR) (Homo sapiens)	pIC50	<	4.00
CC(C)=CCC[C@](C)(O[C@@H]1O[C@H](CO)[C@@H](O)[C@H](O)[C@H]1O)[C@H]1CC[C@]2(C)[C@@H]1[C@H](O)C[C@@H]1[C@@]3(C)CC[C@H](O[C@@H]4O[C@H](CO)[C@@H](O)[C@H](O)[C@H]4O[C@@H]4O[C@H](CO)[C@@H](O)[C@H](O)[C@H]4O)C(C)(C)[C@@H]3CC[C@]12C [Ginsenoside Rd]	human recombinant aldose reductase (HRAR) (Homo sapiens)	pIC50	=	4.43
CC(C)=CCC[C@](C)(O[C@@H]1O[C@H](CO)[C@@H](O)[C@H](O)[C@H]1O)C1CC[C@]2(C)[C@@H]1[C@H](O)CC1[C@@]3(C)CC[C@H](O)C(C)(C)C3CC[C@]12C (some centres unmarked) [Compound K]	human recombinant aldose reductase (HRAR) (Homo sapiens)	pIC50	=	5.65
